Measured GI50 accompanies every entry in the list below.
test system: SN12C; experiment: NCI tumour cell line growth inhibition, 48 h
Active and inactive are the calls of the source. Rule as the data show it: active = GI50 up to about 1.1 µM and inactive = higher.

Below: 5 compounds and their reported GI50.
Data request, read-out GI50, for CC[C@@H]1CC[C@@H]2[C@H](CC[C@]3(C)[C@@H](OC(C)=O)CC[C@@H]23)[C@H]1C(=O)OC 25.2 µM (inactive)

For the compound CC(C(=O)c1ccccc1)C1(O)C(=O)Nc2ccc(Cl)cc21 (stereo not given) , what GI50 is on record? > 100 µM (inactive)

Which GI50 value belongs to Cc1cc2nc3c(C#N)c4c(c(-c5ccc(Cl)cc5)n3c2cc1C)CCC4 ? 30.3 µM (inactive)

Dear colleague, I am looking for the recorded GI50 of the following compound: CC[C@H]1CN(C)[C@H]2Cc3c([nH]c4ccccc34)C(=O)C[C@H]1C2C(=O)OC (stereo not given in full) > 100 µM (inactive)

Could you share which GI50 value was measured for C/C(CCN(C)C)=N/O ? 14.3 µM (inactive)

---
Find the recorded GI50 belonging to COc1ccc(/C=c2\c(=O)[nH]c3nc4ccccc4c(=O)n23)cc1 and report it. 55.1 µM (inactive)

Need GI50 of N=C(N)NCCN1CC2CCC(CC2)C1 , thanks. > 100 µM (inactive)

What measured GI50 goes with CCOC(=O)NC(=O)c1cn(CCCO)c(=O)[nH]c1=O ? > 100 µM (inactive)

Which measured GI50 value corresponds to c1ccc2cc3n[se]nc3cc2c1 ? 91.8 µM (inactive)

// query GI50 value for entry Cc1nc(-c2cc3ccccc3oc2=O)cs1 > 100 µM (inactive)

Bench note: what GI50 did C/C(=N\NC(=S)N/N=C(\C)c1ccccn1)c1ccccn1 show? 0.345 µM (active)

Which GI50 is listed for Nc1ccc2[nH]c(C(=O)N3CC(CCl)c4c3cc(N)c3ccccc43)cc2c1 (stereo not given) ? < 0.01 µM (active)

// returns reported GI50 for input c1ccc(Cc2cc(-c3ccccc3)[nH]n2)cc1 13.5 µM (inactive)

For the compound COC(=O)C(Cc1c[nH]c2ccccc12)NC(=O)C(Cc1c[nH]c2ccccc12)NC(=O)OCc1ccccc1 (stereo not given) , what GI50 is on record? 17.1 µM (inactive)

Look up GI50 for this compound: CC1(C)O[C@@H]([C@H](O)CO)[C@H](O)[C@@H](C2SCCCS2)O1 > 100 µM (inactive)

Please look up its GI50: CC(C)(C)C(=O)Nc1ccccc1Br > 100 µM (inactive)

Would you mind telling me what GI50 value was observed for O=C(CCN(CCO)CCO)Nc1ccc2c(c1)C(=O)c1ccc(NC(=O)CCN(CCO)CCO)cc1C2=O ? 12.8 µM (inactive)

Item under review: CCCc1n[nH]c(=O)n1N1C(=O)C=CC1=O . Reported GI50? > 100 µM (inactive)

Would you mind telling me what GI50 value was observed for COC(=O)C1=C2SCc3ccc(cc3)CSC3=C(C(=O)OC)SC(=C(S2)S1)S3 ? > 100 µM (inactive)

Using the record for C/C(=C1/N=C(c2cc([N+](=O)[O-])ccc2Cl)N(c2ccc(Br)cc2)C1=O)c1cc2ccccc2oc1=O , report its GI50. 20.3 µM (inactive)

May I ask what GI50 has been recorded for Nc1ccccc1S(=O)(=O)N(CC(=O)O)c1ccccc1 ? > 100 µM (inactive)

Give the measured GI50 of CCC(c1ccc(OC)cc1)C1NC(=S)NC1=O (stereo not given) . > 50 µM (inactive)

Given the entry CCc1cccc(C(C)CC)c1NC(=O)CC1C(=O)Nc2ccccc2[S+]1[O-] (stereo not given) , report its measured GI50. 91.2 µM (inactive)

Quick one: GI50 for CCCCCCCCCCCCCCCCCCNC(=O)OCC(CNS(=O)(=O)CCC[n+]1cccc2ccccc21)COC (stereo not given) ? 1.56 µM (inactive)

Which GI50 reading was recorded for the compound N#CC(C#N)=Cc1cccc(Oc2ccccc2)c1 ? 22.5 µM (inactive)

Which GI50 value is on record for CCC(C)CCOC(=O)c1ccc(/N=C\c2ccc(/C=N/c3ccc(C(=O)OCCC(C)CC)cc3)cc2)cc1 (stereo not given) ? > 100 µM (inactive)

I'd like to know its GI50. The compound in question is CC1CCP(=O)(c2ccccc2)CC1 (stereo not given) > 100 µM (inactive)

Fill in: GI50 of CC1(C)OC2C(CO)OC(n3cnc(N)nc3=O)C2O1 (stereo not given) is ___ > 100 µM (inactive)

Which GI50 is listed for CC1=C(C)C(=O)c2c(cc3ccc4ccccc4n23)C1=O ? > 100 µM (inactive)
